- SYSTEM UNDER TEST: hCA II (Homo sapiens, UniProt P00918)
- PROTOCOL DESCRIPTION: Stopped flow CO2 hydrase assay
READOUT TYPE: pKi
Quick note: pKi means taking -log10 of the concentration in moles per liter.

Prompt: Query (compound): `O=C1Nc2ccccc2C1=CNC1=NS(=O)(=O)c2ccccc21` ; field requested: pKi
Response: 5.05

Prompt: Please report the recorded pKi for NS(=O)(=O)OC=C1C(=O)Nc2ccccc21 [Compound 7, (2-Oxoindolin-3-ylidene)methyl sulfamate] .
Response: 5.25

Prompt: Dear colleague, I am looking for the recorded pKi of the following compound: `NS(=O)(=O)c1ccc(NC(=O)c2ccc(NC=C3C(=O)Nc4ccccc43)cc2)cc1`
Response: 6.50

Prompt: Which value of pKi has been reported for NS(=O)(=O)c1ccc(NC(=O)Nc2ccc(NC=C3C(=O)Nc4ccccc43)cc2)cc1 [Compound 15a] in the records?
Response: 6.12

Prompt: What measured pKi goes with `NS(=O)(=O)c1nnc(NC=C2C(=O)Nc3ccccc32)s1` ?
Response: 8.41

Prompt: Fill in the blank: the reported pKi of NS(=O)(=O)c1ccc(NC=CC(=O)c2ccc(NC=C3C(=O)Nc4ccccc43)cc2)cc1 [Compound 13a] is ____.
Response: 6.51

---

- Test system: BT-549
- PROTOCOL DESCRIPTION: NCI-60 single-dose antiproliferative assay (SRB)
- Type: cell-based
- TEST CONTEXT: Homo sapiens; 10 μM single dose; BT-549, Breast cancer; read-out: Cell Growth inhibition Percent
So basically: inhibition at 10 µM at 6% or higher? That is Met. Lower than 6%? That is Not met.

>  <MOLECULE>
NS(=O)(=O)N/C=C1/C(=O)Nc2ccccc21 [Compound 5, 3-(sulfamidmethylene)indoline-2-one]

>  <SYSTEM UNDER TEST>
BT-549

>  <CLASS NAME>
Not met

$$$$

Prompt: Confirm if inhibition at 10 µM reported for the molecule O=C1Nc2ccccc2C1=CNc1ccc(CNc2ccc(S(=O)(=O)Nc3ncccn3)cc2)cc1 [Compound 11b] is 6% or above.
Response: Met

Prompt: API: above_or_equal(metric=inhibition at 10 µM, cutoff=6%) for item `O=C1Nc2ccccc2C1=CNc1ccc(C(=O)Nc2ccc(S(=O)(=O)Nc3ncccn3)cc2)cc1`
Response: Met

Prompt: Exam item: decide whether the reported inhibition at 10 µM for O=C1Nc2ccccc2C1=CNc1ccc(C(=O)C=CNc2nccs2)cc1 [Compound 13c] is at least 6%.
Response: Met

Prompt: Could you verify whether the entry `NS(=O)(=O)c1nnc(NC=C2C(=O)Nc3ccccc32)s1` shows inhibition at 10 µM of no less than 6%?
Response: Not met

---

- System: MDA-MB-231/ATCC
- PROTOCOL DESCRIPTION: NCI-60 single-dose antiproliferative assay (SRB)
- Type: cell-based
- TEST CONTEXT: Homo sapiens, 10 μM single dose, Breast cancer, read-out: Cell Growth inhibition Percent
Bucketed by reported inhibition at 10 µM, buckets being bottom = under 5%, middle = from 5% up to 10%, top = 10% and over

>  <MOLECULE>
NS(=O)(=O)c1nnc(NC=C2C(=O)Nc3ccccc32)s1 [Compound 4d]

>  <SYSTEM UNDER TEST>
MDA-MB-231/ATCC

>  <CLASS NAME>
middle

$$$$
>  <MOLECULE>
O=C1Nc2ccccc2C1=CNc1ccc(CNc2ccc(S(=O)(=O)Nc3ncccn3)cc2)cc1 [Compound 11b]

>  <SYSTEM UNDER TEST>
MDA-MB-231/ATCC

>  <CLASS NAME>
middle

$$$$
>  <MOLECULE>
O=C1Nc2ccccc2C1=CNc1ccc(C(=O)C=CNc2ccc(S(=O)(=O)Nc3ncccn3)cc2)cc1 [Compound 13b]

>  <SYSTEM UNDER TEST>
MDA-MB-231/ATCC

>  <CLASS NAME>
bottom

$$$$
>  <MOLECULE>
O=C1Nc2ccccc2C1=CNc1ccc(C(=O)Nc2ccc(S(=O)(=O)Nc3ncccn3)cc2)cc1 [Compound 9b]

>  <SYSTEM UNDER TEST>
MDA-MB-231/ATCC

>  <CLASS NAME>
bottom

$$$$
>  <MOLECULE>
O=C(Nc1ccc(NC=C2C(=O)Nc3ccccc32)cc1)Nc1nccs1 [Compound 15c]

>  <SYSTEM UNDER TEST>
MDA-MB-231/ATCC

>  <CLASS NAME>
top

$$$$

Prompt: Hi, small favor: classify NS(=O)(=O)c1ccc(NCc2ccc(NC=C3C(=O)Nc4ccccc43)cc2)cc1 [Compound 11a] by its inhibition at 10 µM when you get a moment.
Response: top

Prompt: Where would O=C1Nc2ccccc2C1=CNc1ccc(C(=O)C=CNc2nccs2)cc1 [Compound 13c] land among the classes by reported inhibition at 10 µM?
Response: top

Prompt: Please indicate the class for O=C1Nc2ccccc2C1=CNc1ccc(C(=O)O)cc1 [Compound 4c] based on its inhibition at 10 µM.
Response: bottom
